Test system: erythroid progenitor cells (EPCs)
Experiment: Fetal hemoglobin (HbF) ELISA in day 7 erythroid progenitor cells;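 note: for fetal hemoglobin induction normalized to vehicle-treated cells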
Format: cell-based, human
Details: Homo sapiens, Erythroid progenitor cell, HbF ELISA, day 7 EPCs, 5 days; read-out: EPC ELISA (pEC50 category) (converted)
Where a name gives a salt, the structure may show the parent alone.
Entries annotated with measured EC50

Example results:
INSERT INTO measurements (molecule, value_kind, reported_value) VALUES
  ('CCc1c(C#N)c(SC(C(N)=O)c2ccccc2)nc(N(C)CC(=O)N2CCC2)c1C#N (stereo not shown) [Example 631]', 'EC50', '< 316 nM'),
  ('CCc1c(C#N)c(SC(C(N)=O)c2ccccc2)nc(N2CCC(O)(CO)CC2)c1C#N (stereo not shown) [Example 240]', 'EC50', '1000 to 31600 nM'),
  ('CCc1c(C#N)c(S[C@@H](C(N)=O)c2ccccc2)nc(N2CCC(N)CC2)c1C#N [Example 412, Hydrochloride]', 'EC50', '< 316 nM'),
  ('CCc1c(C#N)c(SC(C(N)=O)c2ccccc2)nc(N(C)CC(=O)N2C[C@@H](CO)[C@@H](O)C2)c1C#N (stereo partly shown) [Example 637]', 'EC50', '1000 to 31600 nM'),
  ('CCc1c(C#N)c(S[C@H](C(N)=O)c2ccccc2)nc(N2CC[C@@H](N)[C@@H](F)C2)c1C#N [Example 531]', 'EC50', '< 316 nM'),
  ('CCc1c(C#N)c(SCC(N)=O)nc(SC(C(N)=O)c2ccccc2)c1C#N (stereo not shown) [Example 235]', 'EC50', '316 to 1000 nM'),
  ('CCc1c(C#N)c(SC(C(N)=O)c2ccccc2)nc(N2CCc3ccncc3C2)c1C#N (stereo not shown) [Example 178]', 'EC50', '1000 to 31600 nM'),
  ('CCc1c(C#N)c(SC(C(N)=O)c2ccc(C(F)(F)F)cc2)nc(N2CCC(NCC(C)(C)C)CC2)c1C#N (stereo not shown) [Example 532]', 'EC50', '< 316 nM');

Data request: For the molecule CCc1c(C#N)c(SC(C(N)=O)c2ccccc2)nc(N2CCC(NC(=O)CN)CC2)c1C#N (stereo not shown) [Example 137, Trifluoroacetic Acid Salt] , report EC50.
Data returned: 316 to 1000 nM

Hey, just so you know, these numbers are from patent US10975056B2.
